System: Ins-1 832/3 cells
Test: INS1 cell insulin secretion assay
Assay type: cell-based, rat
Details: Rattus norvegicus, INS1; in the presence of 50 nM PGE2 (maximal inhibitory concentration); 16.7 mM glucose; 2 hour static incubation; read-out: approximate EC50 for restoring insulin secretion
pEC50: −log10 of the molar value.
quantity: pEC50

Query pEC50 for COc1ccc(Br)cc1S(=O)(=O)NC(=O)/C=C/c1ccccc1Cc1ccc2ccccc2c1
~7.00

// data source = patent US9381176B2
